tested_target: Protein cereblon/Androgen receptor (Homo sapiens, UniProt P10275+Q96SW2)
Sequence (P10275 whole entry, looked up): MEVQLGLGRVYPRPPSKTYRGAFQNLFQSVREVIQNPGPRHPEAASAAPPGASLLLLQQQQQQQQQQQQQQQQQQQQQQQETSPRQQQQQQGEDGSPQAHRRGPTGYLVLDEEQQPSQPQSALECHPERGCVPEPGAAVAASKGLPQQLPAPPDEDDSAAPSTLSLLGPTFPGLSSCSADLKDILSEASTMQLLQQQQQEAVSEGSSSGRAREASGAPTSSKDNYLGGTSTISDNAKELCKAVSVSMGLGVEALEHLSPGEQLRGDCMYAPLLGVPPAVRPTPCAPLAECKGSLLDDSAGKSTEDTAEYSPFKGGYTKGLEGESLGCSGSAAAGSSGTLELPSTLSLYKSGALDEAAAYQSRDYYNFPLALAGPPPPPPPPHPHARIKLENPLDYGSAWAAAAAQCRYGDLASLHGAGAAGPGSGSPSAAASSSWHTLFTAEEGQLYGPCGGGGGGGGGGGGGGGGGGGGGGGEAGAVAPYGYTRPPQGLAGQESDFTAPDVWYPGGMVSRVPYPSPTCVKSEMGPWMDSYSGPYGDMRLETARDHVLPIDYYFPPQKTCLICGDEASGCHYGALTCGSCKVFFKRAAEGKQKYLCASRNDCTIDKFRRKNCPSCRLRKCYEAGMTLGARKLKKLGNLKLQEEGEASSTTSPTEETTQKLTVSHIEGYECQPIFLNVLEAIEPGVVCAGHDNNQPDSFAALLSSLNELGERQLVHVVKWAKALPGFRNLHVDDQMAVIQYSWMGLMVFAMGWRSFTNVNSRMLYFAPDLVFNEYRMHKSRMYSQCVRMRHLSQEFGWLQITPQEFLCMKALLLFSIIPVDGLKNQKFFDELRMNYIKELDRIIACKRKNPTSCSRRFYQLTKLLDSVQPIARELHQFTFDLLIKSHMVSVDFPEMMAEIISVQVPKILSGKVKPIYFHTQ
Sequence (Q96SW2 whole entry, looked up): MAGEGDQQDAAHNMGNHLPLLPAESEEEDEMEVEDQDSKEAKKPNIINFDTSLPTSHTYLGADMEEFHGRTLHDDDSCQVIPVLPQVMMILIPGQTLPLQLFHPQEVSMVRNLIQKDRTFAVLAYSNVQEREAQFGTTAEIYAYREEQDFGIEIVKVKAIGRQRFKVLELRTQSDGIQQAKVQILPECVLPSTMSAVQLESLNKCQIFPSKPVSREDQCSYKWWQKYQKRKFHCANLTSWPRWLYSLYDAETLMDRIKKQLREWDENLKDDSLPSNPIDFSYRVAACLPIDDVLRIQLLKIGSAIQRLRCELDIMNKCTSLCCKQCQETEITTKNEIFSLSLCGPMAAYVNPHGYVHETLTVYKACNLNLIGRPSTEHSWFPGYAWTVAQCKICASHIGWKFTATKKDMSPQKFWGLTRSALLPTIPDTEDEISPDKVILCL
protocol_text: Protac activity at CRBN/AR in human VCaP cells assessed as induction of AR degradation at 0.001 uM measured after 24 hrs by western blot analysis relative to control
Assay type: cell-based
measurement_name: Activity (%)
The figure you give is taken to be in %; do not add the unit.

compound	quantity_unit	Activity
CC1(C)[C@H](NC(=O)c2ccc(NCCCNc3ccc4c(c3)C(=O)N(C3CCC(=O)NC3=O)C4=O)cc2)C(C)(C)[C@H]1Oc1ccc(C#N)c(Cl)c1 (stereo partly drawn)	%	0

We next turn to a different compound, shown below.
Ask: Return Activity for the following compound: CC1(C)[C@H](NC(=O)c2ccc(C(=O)N3CCN(CC4CN(c5ccc6c(c5)C(=O)N(C5CCC(=O)NC5=O)C6=O)C4)CC3)cc2)C(C)(C)[C@H]1Oc1ccc(C#N)c(Cl)c1 (stereo partly drawn)
Reply: 65
